Record form. Attribute: melting point. Fill in for each entry.
Answers are plain numbers, in °C.

In the examples that follow, each entry is paired with its recorded melting point.
>  <COMPOUND>
CCc1nc2cc(C)ccn2c1C(=O)NCc1ccc(N2CCOCC2)cc1

>  <melting point (°C)>
190

$$$$
>  <COMPOUND>
CCc1nc2ccccn2c1C(=O)NCc1ccc(N2CCC(COc3ccc(F)cc3)CC2)cc1

>  <melting point (°C)>
144.2

$$$$
>  <COMPOUND>
CCc1nc2ccc(Br)cn2c1C(=O)NCc1ccc(N2CCOCC2)cc1

>  <melting point (°C)>
228.2

$$$$
>  <COMPOUND>
CCc1nc2ccc(Cl)cn2c1C(=O)NCc1ccc(N2CCN3CCCC3C2)cc1 (stereo not drawn)

>  <melting point (°C)>
163

$$$$
>  <COMPOUND>
CCc1nc2ccc(Br)cn2c1C(=O)NCc1ccc(N2CCN(c3ccc(F)cc3)CC2)cc1

>  <melting point (°C)>
218.1

$$$$

For each of the compounds below, state melting point.
1. CCc1nc2cc(C(F)(F)F)ccn2c1C(=O)NCc1ccc(N2CCOCC2)cc1
2. C=C1CCN(c2ccc(CNC(=O)c3c(CC)nc4cc(Cl)ccn34)cc2)CC1
3. CCc1nc2ccc(Cl)cn2c1C(=O)NCc1ccc(N2CCC(COc3ccc(OC(F)(F)F)cc3)CC2)cc1
4. CCc1nc2cc(N3CCN(Cc4ccc(F)cc4)CC3)ccn2c1C(=O)NCc1ccc(N2CCOCC2)cc1
5. CCc1nc2ccc(Cl)cn2c1C(=O)NCc1ccc(N2CCC(F)(F)CC2)cc1

Result:
[174.1, 168.3, 183.6, 212.5, 194.2]

---

Record form. Attribute: melting point. Fill in for each entry.
Numbers only, in °C.

>  <MOLECULE>
CCc1nc2cc(Cl)ccn2c1C(=O)NCc1ccc(N2CCN3CCCC3C2)cc1 (stereo not shown)

>  <MEASURE>
melting point

>  <NUMBER>
159.1

$$$$
>  <MOLECULE>
CCc1nc2ccc(Cl)cn2c1C(=O)NCc1ccc(N2CCC(C(N)=O)CC2)cc1

>  <MEASURE>
melting point

>  <NUMBER>
257.5

$$$$
>  <MOLECULE>
CCc1nc2cc(Cl)ccn2c1C(=O)NCc1cccc(-c2ccc(OC(F)(F)F)cc2)c1

>  <MEASURE>
melting point

>  <NUMBER>
192.6

$$$$
>  <MOLECULE>
CCc1nc2ccc(Br)cn2c1C(=O)NCc1ccc(OCc2ccc(OC(F)(F)F)cc2)cc1

>  <MEASURE>
melting point

>  <NUMBER>
189.7

$$$$
>  <MOLECULE>
CCc1nc2ccc(Cl)cn2c1C(=O)NCc1ccc(N2CCC(COc3ccc(F)cc3)CC2)cc1

>  <MEASURE>
melting point

>  <NUMBER>
171

$$$$
>  <MOLECULE>
CCc1nc2cc(Cl)ccn2c1C(=O)NCc1ccc(N2CCC(c3ccccc3)CC2)cc1

>  <MEASURE>
melting point

>  <NUMBER>
164.5

$$$$

Now look at this entry.
Q: Fill in the blank: the reported melting point of `CCc1nc2c(OC(F)F)cccn2c1C(=O)NCc1ccc(N2CCOCC2)cc1` is ____.
Result: 163

---

MEASURE: melting point

In the examples that follow, each entry is paired with its recorded melting point.
>  <MOLECULE>
CCc1nc2cc(Cl)ccn2c1C(=O)NCc1ccc(Oc2ccc(F)cc2)nc1 [Compound 193]

>  <melting point>
167 to 167.6 °C

$$$$
>  <MOLECULE>
CCc1nc2ccc(F)cn2c1C(=O)NCc1ccc(Oc2ccc(OC(F)(F)F)cc2)cc1 [Compound 253]

>  <melting point>
133.4 °C

$$$$
>  <MOLECULE>
CCc1nc2cc(Cl)ccn2c1C(=O)NCc1ccc(N2CCN(c3ccc(OC(F)(F)F)cc3)CC2)cc1 [Compound 179]

>  <melting point>
216.3 to 217 °C

$$$$

Now look at this entry.
Q: Fill in the blank: the reported melting point of CCc1nc2ccc(Cl)cn2c1C(=O)N(C)Cc1ccc(N2CCN(c3ccc(F)cc3)CC2)cc1 [Compound 182] is ____.
Result: 148 to 149 °C

---

Record form. Attribute: melting point. Fill in for each entry.
One number for each entry, in °C.

In the examples that follow, each entry is paired with its recorded melting point.
>  <STRUCTURE_SMILES_STRING>
CCc1nc2cc(Br)ccn2c1C(=O)NCc1ccc(N2CCOCC2)cc1

>  <MEASURE>
melting point

>  <DISPLAY_UNIT>
°C

>  <NUMBER>
202.6

$$$$
>  <STRUCTURE_SMILES_STRING>
CCc1nc2ccc(C(F)(F)F)cn2c1C(=O)NCc1ccc(N2CCOCC2)cc1

>  <MEASURE>
melting point

>  <DISPLAY_UNIT>
°C

>  <NUMBER>
207.6

$$$$
>  <STRUCTURE_SMILES_STRING>
CCc1nc2ccc(Cl)cn2c1C(=O)NCc1ccc(N2CCOCC2)c(Cl)c1

>  <MEASURE>
melting point

>  <DISPLAY_UNIT>
°C

>  <NUMBER>
175.5

$$$$
>  <STRUCTURE_SMILES_STRING>
CCc1nc2cc(-c3cccnc3)ccn2c1C(=O)NCc1ccc(N2CCOCC2)cc1

>  <MEASURE>
melting point

>  <DISPLAY_UNIT>
°C

>  <NUMBER>
208.5

$$$$

Q: Fill in the blank: the reported melting point of `CCc1nc2ccc(Cl)cn2c1C(=O)NCc1ccc(N2CCC(c3ccccc3)CC2)cc1` is ____.
Result: 138.2

---

Record form. Attribute: melting point. Fill in for each entry.
Give bare numbers, in °C.

In the examples that follow, each entry is paired with its recorded melting point.
>  <COMPOUND>
CCc1nc2ccc(Cl)cn2c1C(=O)NCc1ccc(N2CCC3CCCCC3C2)cc1 (centres unmarked)

>  <DISPLAY_UNIT>
°C

>  <melting point>
141.7

$$$$
>  <COMPOUND>
CCc1nc2cc(C)ccn2c1C(=O)NCc1ccc2ccccc2c1

>  <DISPLAY_UNIT>
°C

>  <melting point>
192

$$$$
>  <COMPOUND>
CCc1nc2cc(Cl)ccn2c1C(=O)NCc1ccc(N2CCC(C)(C)CC2)cc1

>  <DISPLAY_UNIT>
°C

>  <melting point>
121.3

$$$$
>  <COMPOUND>
CCc1nc2ccc(OC)cn2c1C(=O)NCc1ccc(N2CCN(c3ccc(F)cc3)CC2)cc1

>  <DISPLAY_UNIT>
°C

>  <melting point>
173.8

$$$$

Now look at this entry.
Q: Fill in the blank: the reported melting point of `CCc1nc2ccc(Cl)cn2c1C(=O)NCc1ccc(N2CCC(c3ccc(F)cc3)CC2)cc1` is ____.
Result: 164

---

Record form. Attribute: melting point. Fill in for each entry.

>  <STRUCTURE_SMILES_STRING>
CCc1nc2ccc(Cl)cn2c1C(=O)NCC(C)C

>  <MEASURE>
melting point

>  <RESULT>
162.2 °C

$$$$
>  <STRUCTURE_SMILES_STRING>
CCc1nc2ccc(F)cn2c1C(=O)NCc1ccc(N2CCN(c3ccc(F)cc3)CC2)cc1

>  <MEASURE>
melting point

>  <RESULT>
200.9 °C

$$$$
>  <STRUCTURE_SMILES_STRING>
CCc1nc2cc(N3CCN(C)CC3)ccn2c1C(=O)NCc1ccc(N2CCOCC2)cc1

>  <MEASURE>
melting point

>  <RESULT>
204.8 °C

$$$$

Q: Fill in the blank: the reported melting point of `CCc1nc2ccc(Cl)cn2c1C(=O)NCc1ccc(Oc2ccc(OC(F)(F)F)cc2)nc1` is ____.
Result: 154 to 155 °C

---

Record form. Attribute: melting point. Fill in for each entry.

>  <COMPOUND>
CCc1nc2cc(Cl)ccn2c1C(=O)NCc1ccc(N2CCC3CCCCC3C2)cc1 (stereo not shown)

>  <melting point>
174.2 °C

$$$$
>  <COMPOUND>
CCc1nc2cc(Cl)ccn2c1C(=O)NCc1ccc(C(F)(F)F)cc1

>  <melting point>
196.2 to 196.9 °C

$$$$
>  <COMPOUND>
CCc1nc2cc(-c3ccncc3)ccn2c1C(=O)NCc1ccc(N2CCOCC2)cc1

>  <melting point>
210.1 °C

$$$$

Q: Fill in the blank: the reported melting point of `CCc1nc2cc(Cl)ccn2c1C(=O)NCc1ccc(N2CCC(Cc3ccccc3)CC2)cc1` is ____.
Result: 63.8 °C

---

MEASURE: melting point

In the examples that follow, each entry is paired with its recorded melting point.
>  <COMPOUND>
CCc1nc2ccc(Cl)cn2c1C(=O)NCc1ccc(N2CC(C)CC(C)C2)cc1 (centres unmarked) [Compound 216]

>  <melting point>
157.2 to 158 °C

$$$$
>  <COMPOUND>
CCc1nc2cc(Cl)ccn2c1C(=O)NCc1ccc(Oc2ccc(OC(F)(F)F)cc2)cc1 [Compound 186]

>  <melting point>
141 to 142 °C

$$$$
>  <COMPOUND>
CCc1nc2ccc(Br)cn2c1C(=O)NCc1ccc(Oc2ccc(OC(F)(F)F)cc2)cc1 [Compound 254]

>  <melting point>
152.9 °C

$$$$
>  <COMPOUND>
CCc1nc2ccc(C)cn2c1C(=O)NCc1ccc(N2CCN(c3ccc(F)cc3)CC2)cc1 [Compound 308]

>  <melting point>
187.6 °C

$$$$
>  <COMPOUND>
CCc1nc2c(OC(F)F)cccn2c1C(=O)NCc1ccc(N2CCN(c3ccc(F)cc3)CC2)cc1 [Compound 304]

>  <melting point>
186.3 °C

$$$$
>  <COMPOUND>
CCc1nc2cc(Br)ccn2c1C(=O)NCc1ccc(N2CCN(c3ccc(F)cc3)CC2)cc1 [Compound 311]

>  <melting point>
214.6 °C

$$$$
>  <COMPOUND>
CCc1nc2c(F)cccn2c1C(=O)NCc1ccc(N2CCN(c3ccc(F)cc3)CC2)cc1 [Compound 310]

>  <melting point>
204.1 °C

$$$$

Now look at this entry.
Q: Fill in the blank: the reported melting point of CCc1nc2cc(Cl)ccn2c1C(=O)NCc1ccc(N2CCN(Cc3ccc(OC(F)(F)F)cc3)CC2)cc1 [Compound 174] is ____.
Result: 137.1 to 137.6 °C

Data origin: patent US8865734B2
